The reported numbers originate from PubChem BioAssay AID1845209.

Test system: NCI-H211 tumor spheroids, viability percent test/control
test.protocol: Anticancer human tumor NCI-H211 cell line growth inhibition;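 further: spheroids exposed to agents for seven days before readout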
assay.conditions: curve of first compound; second compound 1 µM; spheroids with HUVEC and MSC
In this section, each of the compounds is paired with its reported IC50.
observable: IC50

| compound | observable | result |
| --- | --- | --- |
| COc1ccc([C@@H](O)c2cc(-c3ncnc4cc(N5CCOCC5)ccc34)c(F)cc2Cl)nn1 + Cn1nnc2c(C(N)=O)ncn2c1=O | IC50 | 6.28 µM |
| CC1COCCN1c1cc(-c2ccnn2C)c2ccnc(-c3ccn[nH]3)c2n1 (centres undefined) + Cn1nnc2c(C(N)=O)ncn2c1=O | IC50 | < 0.0316 µM |
| Cn1ncnc1[C@H]1c2n[nH]c(=O)c3cc(F)cc(c23)N[C@@H]1c1ccc(F)cc1 + Cn1nnc2c(C(N)=O)ncn2c1=O | IC50 | < 0.00949 µM |
| COc1cc(C)[nH]c(=O)c1CN1CCc2c(Cl)cc(C(OC)C3COC3)c(Cl)c2C1=O (centres undefined) + Cn1nnc2c(C(N)=O)ncn2c1=O | IC50 | > 10 µM |

###

Test system: NCI-H211 tumor spheroids, viability percent test/control
test.protocol: Anticancer human tumor NCI-H211 cell line growth inhibition; active = viability on the fitted dose curve at most 10% of control; inactive = the rest;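 further: spheroids exposed to agents for seven days before readout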
assay.conditions: second compound 0.00949 µM; first compound 0.316 µM; spheroids with HUVEC and MSC
Outcomes: active, inactive

| molecule | group |
| --- | --- |
| COc1cc(C)[nH]c(=O)c1CN1CCc2c(Cl)cc(C(OC)C3COC3)c(Cl)c2C1=O (stereo not drawn) + CC[C@@]1(O)C(=O)OCc2c1cc1n(c2=O)Cc2cc3c(CN(C)C)c(O)ccc3nc2-1 | inactive |
| CC(C)n1c(=O)n(C)c2cnc3cc(F)c(-c4ccc(OCCCN5CCCCC5)nc4)cc3c21 + CC[C@@]1(O)C(=O)OCc2c1cc1n(c2=O)Cc2cc3c(CN(C)C)c(O)ccc3nc2-1 | active |
| CC1COCCN1c1cc(-c2ccnn2C)c2ccnc(-c3ccn[nH]3)c2n1 (stereo not drawn) + CC[C@@]1(O)C(=O)OCc2c1cc1n(c2=O)Cc2cc3c(CN(C)C)c(O)ccc3nc2-1 | active |

###

Tested on: NCI-H211 tumor spheroids, viability percent test/control
test.protocol: Anticancer human tumor NCI-H211 cell line growth inhibition; active = viability on the fitted dose curve at most 10% of control; inactive = the rest;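 further: spheroids exposed to agents for seven days before readout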
assay.conditions: second compound 0.003 µM; first compound 0.00949 µM; spheroids with HUVEC and MSC
Outcomes: active, inactive

| compound | system | group |
| --- | --- | --- |
| Cn1ncnc1[C@H]1c2n[nH]c(=O)c3cc(F)cc(c23)N[C@@H]1c1ccc(F)cc1 + CC[C@@]1(O)C(=O)OCc2c1cc1n(c2=O)Cc2cc3c(CN(C)C)c(O)ccc3nc2-1 | NCI-H211 tumor spheroids, viability percent test/control | active |
| CNCc1ccc(-c2cc(-c3nc(-c4ccc(S(=O)(=O)C(C)C)cc4)cnc3N)on2)cc1 + CC[C@@]1(O)C(=O)OCc2c1cc1n(c2=O)Cc2cc3c(CN(C)C)c(O)ccc3nc2-1 | NCI-H211 tumor spheroids, viability percent test/control | inactive |
| Cn1ncnc1[C@H]1c2n[nH]c(=O)c3cc(F)cc(c23)N[C@@H]1c1ccc(F)cc1 + COc1cc2c(cc1O)CCNC21CSC2c3c(OC(C)=O)c(C)c4c(c3C(COC1=O)N1C(O)C3Cc5cc(C)c(OC)c(O)c5C(C21)N3C)OCO4 | NCI-H211 tumor spheroids, viability percent test/control | active |
| Cc1sc2c(c1C)C(c1ccc(Cl)cc1)=NC(CC(=O)Nc1ccc(O)cc1)c1nnc(C)n1-2 (stereo unspecified) + CC[C@@]1(O)C(=O)OCc2c1cc1n(c2=O)Cc2cc3c(CN(C)C)c(O)ccc3nc2-1 | NCI-H211 tumor spheroids, viability percent test/control | inactive |
| CNCc1ccc(-c2cc(-c3nc(-c4ccc(S(=O)(=O)C(C)C)cc4)cnc3N)on2)cc1 + COc1cc2c(cc1O)CCNC21CSC2c3c(OC(C)=O)c(C)c4c(c3C(COC1=O)N1C(O)C3Cc5cc(C)c(OC)c(O)c5C(C21)N3C)OCO4 | NCI-H211 tumor spheroids, viability percent test/control | active |
| Cc1sc2c(c1C)C(c1ccc(Cl)cc1)=NC(CC(=O)Nc1ccc(O)cc1)c1nnc(C)n1-2 (stereo unspecified) + COc1cc2c(cc1O)CCNC21CSC2c3c(OC(C)=O)c(C)c4c(c3C(COC1=O)N1C(O)C3Cc5cc(C)c(OC)c(O)c5C(C21)N3C)OCO4 | NCI-H211 tumor spheroids, viability percent test/control | active |
